- Tested on: hCoV-OC43
- Test: Focus forming reduction assay (FFRA), hCoV-OC43 in HCT-8 cells, single concentration
- Format: cell-based
- Particulars: Betacoronavirus 1, OC43, HCT-8, 72 h, HCT8 cells, 72 h p.i., vs DMSO control, read-out: % Decrease of hCoV-OC43 replication in presence of inhibitor 0.1 μM
Consider the following compounds; for each one, report its inhibition at 0.1 µM.
# number only, unit % dropped from output

Form: item O=C(Nc1c(F)c(F)c(-c2cccc(OC(F)(F)F)c2)c(F)c1F)c1c(O)nn2ccccc12 [Compound 15] ; test system hCoV-OC43; inhibition at 0.1 µM: 93.6

Form: item O=C(Nc1c(F)c(F)c(-c2ccccc2)c(F)c1F)c1c(O)nn2c1CCCC2 [Compound 5] ; test system hCoV-OC43; inhibition at 0.1 µM: 31.3

Form: item Cc1cc(NC(=O)c2c(O)nn3ccccc23)c(C(C)C)cc1Oc1ccc(C(F)(F)F)cc1 [Compound 37] ; test system hCoV-OC43; inhibition at 0.1 µM: 36.1

###

Consider the following molecules; for each one, report its pIC50.
- Experimental Target: recombinant hDHODH (Homo sapiens (Human), UniProt Q02127)
- Sequence (Q02127 whole entry): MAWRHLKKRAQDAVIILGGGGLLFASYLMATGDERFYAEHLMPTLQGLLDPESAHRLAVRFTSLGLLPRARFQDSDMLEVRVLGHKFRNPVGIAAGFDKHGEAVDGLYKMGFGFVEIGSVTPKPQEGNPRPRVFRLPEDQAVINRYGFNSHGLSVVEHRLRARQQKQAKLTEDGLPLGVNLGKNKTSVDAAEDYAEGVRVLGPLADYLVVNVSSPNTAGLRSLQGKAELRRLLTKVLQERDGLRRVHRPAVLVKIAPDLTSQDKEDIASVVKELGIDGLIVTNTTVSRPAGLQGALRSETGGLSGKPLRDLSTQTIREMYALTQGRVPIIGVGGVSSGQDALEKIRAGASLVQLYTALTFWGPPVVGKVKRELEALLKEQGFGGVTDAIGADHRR
- Test: hDHODH inhibition assay (DCIP reduction)
- Assay type: biochemical
- Particulars: recombinant GST-hDHODH; means ± SE of three independent experiments; read-out: hDHODH IC50 ± SE
In simple prose, pIC50 is minus the logarithm base ten of a concentration in moles per litre.

molecule CC(O)COc1cccc(-c2c(F)c(F)c(NC(=O)c3c(O)nn4ccccc34)c(F)c2F)c1 (centres unmarked) [Compound 43] , pIC50 observed: 8.60

molecule O=C(Nc1ccc2c(c1)nnn2-c1ccccc1)c1c(O)nn2ccccc12 [Compound 22] , pIC50 observed: 5.14

molecule Cc1cc(Oc2ccccc2)c(C)cc1NC(=O)c1c(O)nn2ccccc12 [Compound 18] , pIC50 observed: 7.37

molecule O=C(Nc1c(F)c(F)c(-c2ccccc2)c(F)c1F)c1c(O)nn2c1CCCC2 [Compound 5] , pIC50 observed: 8.24

molecule O=C(Nc1c(F)c(F)c(-c2cccc(C(F)(F)F)c2)c(F)c1F)c1c(O)nn2ccccc12 [Compound 13] , pIC50 observed: 8.20

molecule O=C(Nc1c(F)c(F)c(-c2cccc(O)c2)c(F)c1F)c1c(O)nn2ccccc12 [Compound 14] , pIC50 observed: 8.56

molecule Cc1cc(NC(=O)c2c(O)nn3ccccc23)ccc1Oc1ccccc1 [Compound 27] , pIC50 observed: 6.32

molecule CCC(C)Oc1cc(Oc2ccccc2)c(C)cc1NC(=O)c1c(O)nn2ccccc12 (centres unmarked) [Compound 33] , pIC50 observed: 5.40

###

- Test: in vitro
- Particulars: African green monkey
Measurement Label: CC50 at 3 days

compound Cc1c(-c2ccc(-c3ccccc3F)cc2)nc2ccc(F)cc2c1C(=O)O [Brequinar] , CC50 at 3 days observed: 100 µM

compound CCCOc1cccc(-c2c(F)c(F)c(NC(=O)c3c(O)nn4ccccc34)c(F)c2F)c1 [Compound 17] , CC50 at 3 days observed: 117 µM

###

- Test: Solubility assay at pH 7.4 in PBS
- Type: physicochemical
- Particulars: 25 °C, pH 7.4, aqueous buffer, thermodynamic from solid
Measurement Label: log10(solubility at 24 h) (log10 of the value in µM)
A value of 2 here means solubility at 24 h of 100 in µM, since values are log10.

compound Cc1cc(NC(=O)c2c(O)nn3ccccc23)c(C(C)C)cc1Oc1ccc(C(F)(F)F)cc1 , log10(solubility at 24 h) observed: 0.09

compound Cc1cc(Oc2ccccc2)c(C(C)C)cc1NC(=O)c1c(O)nn2ccccc12 , log10(solubility at 24 h) observed: -0.01

compound Cc1cc(NC(=O)c2c(O)nn3ccccc23)c(C(C)C)cc1Oc1ccccc1 , log10(solubility at 24 h) observed: 0.08

compound Cc1cc(NC(=O)c2c(O)nn3ccccc23)c(C(C)C)cc1Oc1ccncc1 , log10(solubility at 24 h) observed: 2.05

compound O=C(Nc1c(F)c(F)c(-c2cccc(O)c2)c(F)c1F)c1c(O)nn2ccccc12 , log10(solubility at 24 h) observed: 1.74

compound O=C(Nc1c(F)c(F)c(N2CCOCC2)c(F)c1F)c1c(O)nn2ccccc12 , log10(solubility at 24 h) observed: 2.64

###

- Experimental Target: recombinant hDHODH (Homo sapiens (Human), UniProt Q02127)
- Test: hDHODH inhibition assay (DCIP reduction)
- Format: biochemical
Measurement Label: IC50 (µM)
# number only, unit µM dropped from output

Form: item CCC(CC)Oc1cc(Oc2ccccc2)c(C)cc1NC(=O)c1c(O)nn2ccccc12 ; test system recombinant hDHODH (Homo sapiens (Human), UniProt Q02127); IC50: 6.98

###

- Test: log D (pH 7.4), shake-flask n-octanol/PBS
- Particulars: n-octanol/PBS pH 7.4, shake flask
Consider the following compounds; for each one, report its Log D7.4 ± SD.
No unit in the answer, please; the number alone is enough.

compound Cc1cc(Oc2ccccc2)c(C(C)C)cc1NC(=O)c1c(O)nn2ccccc12 [Compound 30] , Log D7.4 ± SD observed: 2.91

compound Cc1c(-c2ccc(-c3ccccc3F)cc2)nc2ccc(F)cc2c1C(=O)O [Brequinar] , Log D7.4 ± SD observed: 1.83

compound Cc1cc(NC(=O)c2c(O)nn3ccccc23)c(C(C)C)cc1Oc1ccncc1 [Compound 36] , Log D7.4 ± SD observed: 2.51

compound O=C(Nc1ccc2c(c1)ncn2-c1ccccc1)c1c(O)nn2ccccc12 [Compound 21] , Log D7.4 ± SD observed: 2.55

compound O=C(Nc1ccc2[nH]ccc2c1)c1c(O)nn2ccccc12 [Compound 19] , Log D7.4 ± SD observed: 0.45

compound O=C(Nc1ccc2c(ccn2-c2ccccc2)c1)c1c(O)nn2ccccc12 [Compound 20] , Log D7.4 ± SD observed: 2.89

compound Cc1cc(Sc2ccncc2)c(C)cc1NC(=O)c1c(O)nn2ccccc12 [Compound 26] , Log D7.4 ± SD observed: 1.76

compound Cc1cc(NC(=O)c2c(O)nn3ccccc23)c(C(C)C)cc1Oc1ccccc1 [Compound 29] , Log D7.4 ± SD observed: 3.18

compound O=C(Nc1ccc2c(c1)nnn2-c1ccccc1)c1c(O)nn2ccccc12 [Compound 22] , Log D7.4 ± SD observed: 1.59

###

Consider the following compounds; for each one, report its melting point.

compound CC(F)(F)COc1cccc(-c2c(F)c(F)c(NC(=O)c3c(O)nn4ccccc34)c(F)c2F)c1 , melting point observed: 229.6 to 231.7 °C

compound O=C(Nc1ccc2c(c1)ncn2-c1ccccc1)c1c(O)nn2ccccc12 , melting point observed: 133.6 to 135.9 °C

compound O=C(Nc1ccc2c(c1)nnn2-c1ccccc1)c1c(O)nn2ccccc12 , melting point observed: 133.6 to 135.9 °C

compound O=C(Nc1ccc2c(ccn2-c2ccccc2)c1)c1c(O)nn2ccccc12 , melting point observed: 133.6 to 135.9 °C

###

- Particulars: pH 7.4
Measurement Label: Log D7.4 ± SD
No unit in the answer, please; the number alone is enough.

compound O=C(Nc1c(F)c(F)c(-c2cccnc2)c(F)c1F)c1c(O)nn2ccccc12 , Log D7.4 ± SD observed: 0.98

compound O=C(Nc1c(F)c(F)c(-c2ccnc(C(F)(F)F)c2)c(F)c1F)c1c(O)nn2ccccc12 , Log D7.4 ± SD observed: 1.84

compound O=C(Nc1c(F)c(F)c(-c2cccc(O)c2)c(F)c1F)c1c(O)nn2ccccc12 , Log D7.4 ± SD observed: 1.82

compound O=C(Nc1c(F)c(F)c(-c2cccc(OC(F)(F)F)c2)c(F)c1F)c1c(O)nn2ccccc12 , Log D7.4 ± SD observed: 3.27

compound O=C(Nc1c(F)c(F)c(-c2cccc(F)c2)c(F)c1F)c1c(O)nn2ccccc12 , Log D7.4 ± SD observed: 2.09

compound O=C(Nc1c(F)c(F)c(-c2ccccc2)c(F)c1F)c1c(O)nn2c1CCCC2 , Log D7.4 ± SD observed: 2.36

compound O=C(Nc1c(F)c(F)c(N2CCOCC2)c(F)c1F)c1c(O)nn2ccccc12 , Log D7.4 ± SD observed: 0.66

compound O=C(Nc1c(F)c(F)c(-c2cccc(C(F)(F)F)c2)c(F)c1F)c1c(O)nn2ccccc12 , Log D7.4 ± SD observed: 2.69

compound O=C(Nc1c(F)c(F)c(-c2ccccc2)c(F)c1F)c1c(O)nn2c(Cl)cccc12 , Log D7.4 ± SD observed: 2.81

compound CCCOc1cccc(-c2c(F)c(F)c(NC(=O)c3c(O)nn4ccccc34)c(F)c2F)c1 , Log D7.4 ± SD observed: 3.28

###

- Experimental Target: recombinant hDHODH (Homo sapiens (Human))
- Test: hDHODH inhibition assay (DCIP reduction)
- Format: biochemical
- Particulars: recombinant GST-hDHODH; means ± SE of three independent experiments; read-out: hDHODH IC50 ± SE
Consider the following compounds; for each one, report its IC50.
# number only, unit nM dropped from output

compound O=C(Nc1c(F)c(F)c(-c2cccs2)c(F)c1F)c1c(O)nn2ccccc12 , IC50 observed: 1.35

compound COc1cccc(-c2c(F)c(F)c(NC(=O)c3c(O)nn4ccccc34)c(F)c2F)c1 , IC50 observed: 2.75

compound Cc1cccc2c(C(=O)Nc3c(F)c(F)c(-c4ccccc4)c(F)c3F)c(O)nn12 , IC50 observed: 4.3

compound O=C(Nc1c(F)c(F)c(-c2ccc(C(F)(F)F)cc2)c(F)c1F)c1c(O)nn2ccccc12 , IC50 observed: 71.8

compound O=C(Nc1c(F)c(F)c(N2CCOCC2)c(F)c1F)c1c(O)nn2ccccc12 , IC50 observed: 90.9

compound O=C(Nc1c(F)c(F)c(-c2cccnc2)c(F)c1F)c1c(O)nn2ccccc12 , IC50 observed: 6.23

compound O=C(Nc1c(F)c(F)c(-c2cccc(F)c2)c(F)c1F)c1c(O)nn2ccccc12 , IC50 observed: 2.03

compound O=C(Nc1c(F)c(F)c(-c2cccc(OC(F)(F)F)c2)c(F)c1F)c1c(O)nn2ccccc12 , IC50 observed: 2.3

compound O=C(Nc1c(F)c(F)c(-c2ccccc2)c(F)c1F)c1c(O)nn2c(Cl)cccc12 , IC50 observed: 3.4

compound O=C(Nc1ccc(Oc2ccccc2)cn1)c1c(O)nn2ccccc12 , IC50 observed: 12000

compound CC(=O)COc1cccc(-c2c(F)c(F)c(NC(=O)c3c(O)nn4ccccc34)c(F)c2F)c1 , IC50 observed: 0.82

compound CCCC(C)Oc1cc(Oc2ccccc2)c(C)cc1NC(=O)c1c(O)nn2ccccc12 (centres unmarked) , IC50 observed: 2210

compound Cc1cc(NC(=O)c2c(O)nn3ccccc23)c(OC(C)C)cc1Oc1ccccc1 , IC50 observed: 5200

compound O=C(Nc1c(F)c(F)c(-c2ccc(F)cc2)c(F)c1F)c1c(O)nn2ccccc12 , IC50 observed: 17.7

compound O=C(Nc1c(F)c(F)c(-c2ccnc(C(F)(F)F)c2)c(F)c1F)c1c(O)nn2ccccc12 , IC50 observed: 150

compound O=C(Nc1ccc2c(ccn2-c2ccccc2)c1)c1c(O)nn2ccccc12 , IC50 observed: 2760

compound CC(F)(F)COc1cccc(-c2c(F)c(F)c(NC(=O)c3c(O)nn4ccccc34)c(F)c2F)c1 , IC50 observed: 1.48

compound Cc1cc(Sc2ccncc2)c(C)cc1NC(=O)c1c(O)nn2ccccc12 , IC50 observed: 2210

compound O=C(Nc1c(F)c(F)c(-c2cccc(OCCCO)c2)c(F)c1F)c1c(O)nn2ccccc12 , IC50 observed: 3.29
